Species on record: Homo sapiens
Experiment: Selectivity for ROCK1 over MSK1
parameter_measured: Selectivity ratio
// return a plain number; no unit text

- smiles_text: "CCn1c(-c2nonc2N)nc2cnc(Oc3cccc(N)c3)cc21"
  result: 9.4

Ask: Endpoint output: Selectivity ratio of CCn1c(-c2nonc2N)nc2cnc(Oc3ccccc3)cc21 . Value?
Reply: 1.5

----------
Species: Homo sapiens
Assay: Selectivity for ROCK1 over p70S6K
Recorded Selectivity ratio by entry
Answer with the value's number alone.

# example entries with known answers
- smiles_text: "CCn1c(-c2nonc2N)nc2cnc(Oc3cccc(S(C)(=O)=O)c3)cc21"
  Selectivity ratio: 0.7
- smiles_text: "CCn1c(-c2nonc2N)nc2cnc(Oc3cccc(NC(=O)c4ccccc4)c3)cc21"
  Selectivity ratio: 3
- smiles_text: "CCn1c(-c2nonc2N)nc2cnc(Oc3cccc(C(C)=O)c3)cc21"
  Selectivity ratio: 6.2

Ask: Need Selectivity ratio, item CCn1c(-c2nonc2N)nc2cnc(Oc3ccccc3)cc21
Reply: 18
